Some sequences, each annotated with its measured target mRNA inhibition.
# assayed.system: KRAS
# cond: ASO, A431, 2 µM
After the bases stand the sugars from the 5' end (letter, count) and the backbone: PS all phosphorothioate, else s phosphorothioate and o phosphodiester by linkage. Methylation of C is not given here. e = 2'-O-(2-methoxyethyl) (MOE); k = constrained ethyl (cEt); d = 2'-deoxy (DNA)
Please respond with the number in % and leave the unit unwritten.

Below: 5 sequences and their reported target mRNA inhibition.
{"chain.sequence": "TGTTTATGCAATGTTA (sugars k3 d9 k3 e1, PS)", "unit.of.measurement": "%", "meas.value": 72}
{"chain.sequence": "CAGTGTTAAGAGAACT (sugars kddddddddddkekek, PS)", "unit.of.measurement": "%", "meas.value": 23}
{"chain.sequence": "ACCATTCAAAGTTCAC (sugars kkkddddddddkdkdk, PS)", "unit.of.measurement": "%", "meas.value": 12}
{"chain.sequence": "TCTTGATTTGTCAGCA (sugars k3 d10 k3, PS)", "unit.of.measurement": "%", "meas.value": 62}
{"chain.sequence": "CACTTGTACTAGTATG (sugars k3 d10 k3, PS)", "unit.of.measurement": "%", "meas.value": 36}

Request: Answer with the recorded target mRNA inhibition of AACAAATGCTAATAAT (sugars k3 d10 k3, PS) only.
Result: 0

Request: Recall and state the measured target mRNA inhibition for TGGTGAATATCTTCAA (sugars k3 d10 k3, PS) .
Result: 9

Request: Please report target mRNA inhibition for the following sequence: GTAGTTTCACATAGCA (sugars k3 d10 k3, PS)
Result: 46

Request: Retrieve target mRNA inhibition measured for CTTGTACTAGTATGCC (sugars k3 d10 k3, PS) and print it.
Result: 59

Request: Please give the documented target mRNA inhibition of TAAGGTAAAAGCTAAC (sugars k3 d10 k3, PS)
Result: 20

Request: Fill in target mRNA inhibition for record GGAGTCTTTATAGTAA (sugars kkdddddddddkekek, PS)
Result: 21

---

Entries and their target mRNA inhibition values follow.
# assayed.system: APOL1
# cond: ASO, A431, 0.25 µM
After the bases stand the sugars from the 5' end (letter, count) and the backbone: PS all phosphorothioate, else s phosphorothioate and o phosphodiester by linkage. Methylation of C is not given here. e = 2'-O-(2-methoxyethyl) (MOE); k = constrained ethyl (cEt); d = 2'-deoxy (DNA)

{"chain.sequence": "TCCTGGGCGGCGACAA (sugars k4 d9 k3, PS)", "assayed.system": "APOL1", "meas.value": "74%"}

Request: Report value: target mRNA inhibition, system: APOL1, sequence: GGAAATGAACGCAATG (sugars k4 d9 k3, PS)
Result: 71%

Request: Please report target mRNA inhibition with APOL1 for item TTTGTAAGTGCAACCA (sugars kekddddeekkddddd, PS) .
Result: 84%

Request: State measured target mRNA inhibition of the sequence AGGGAAATGAACGCAA (sugars k4 d9 k3, PS) with APOL1.
Result: 65%

Request: Fill in: target mRNA inhibition on APOL1, entry AGTTTTGTAAGTGCAA (sugars k3 d4 k3 e1 d5, PS)
Result: 87%

Request: Return reported target mRNA inhibition for target or system APOL1, item CGCAATGCTGACTTGG (sugars kkddddekekeddddd, PS) .
Result: 80%

Request: Find the measured target mRNA inhibition of AATATCAGAGTGTACC (sugars k4 d9 k3, PS) with APOL1 as test system.
Result: 73%

Request: Answer briefly: target mRNA inhibition recorded on APOL1 for TGTTATATTTGATCCT (sugars kekddddeekkddddd, PS)
Result: 70%

---

# assayed.system: IRF5
# cond: ASO, A-431, 0.33333 µM
After the bases stand the sugars from the 5' end (letter, count) and the backbone: PS all phosphorothioate, else s phosphorothioate and o phosphodiester by linkage. Methylation of C is not given here. [mop] = methoxypropylphosphonate linkage; e = 2'-O-(2-methoxyethyl) (MOE); k = constrained ethyl (cEt); d = 2'-deoxy (DNA); m = 2'-O-methyl
measured.attribute: target mRNA inhibition

Solved entries:
{"chain.sequence": "TGTCTAGTGTCATGGA (sugars k2 d9 e3 k2, linkages s3 [mop]1 s11)", "target mRNA inhibition": "58%"}
{"chain.sequence": "TCTGATATGATACCTA (sugars k3 d10 k3, PS)", "target mRNA inhibition": "89%"}
{"chain.sequence": "TGTCTAGTGTCATGGA (sugars kkdkdddddddeeekk, PS)", "target mRNA inhibition": "23%"}

Request: Tell me target mRNA inhibition of TGTCTAGTGTCATGGA (sugars kkddkddddddeeekk, PS) when tested on IRF5.
Result: 13%

Request: For IRF5, give the measured target mRNA inhibition of the entry TCTGAUATGATACCTA (sugars k3 d2 m1 d7 k3, PS)
Result: 79%

---

# assayed.system: APOL1
# cond: ASO, A431, 0.0156 µM
After the bases stand the sugars from the 5' end (letter, count) and the backbone: PS all phosphorothioate, else s phosphorothioate and o phosphodiester by linkage. Methylation of C is not given here. e = 2'-O-(2-methoxyethyl) (MOE); k = constrained ethyl (cEt); d = 2'-deoxy (DNA)
measured.attribute: target mRNA inhibition (%)
Respond numerically; units are % and should not be typed.

{"chain.sequence": "AGTTTTGTAAGTGCAA (sugars k3 d4 k3 e1 d5, PS)", "target mRNA inhibition, %": 15}
{"chain.sequence": "TATTTCTTGATGTGGT (sugars k3 d4 k3 e1 d5, PS)", "target mRNA inhibition, %": 45}
{"chain.sequence": "TTTGTAAGTGCAACCA (sugars kkdddddkekeddddd, PS)", "target mRNA inhibition, %": 36}

Request: State its target mRNA inhibition: ACTTTACATGCACGAT (sugars kkdddddddddekeke, PS)
Result: 8

Request: Item AGTTTTGTAAGTGCAA (sugars kkddddkdkdkddddd, PS) : provide target mRNA inhibition
Result: 16

Request: Note target mRNA inhibition for the sequence shown: CGCAATGCTGACTTGG (sugars kkdddddkekeddddd, PS)
Result: 11

Request: Respond only with target mRNA inhibition recorded for GCTAATTTTCTGACTG (sugars k3 d4 k3 e1 d5, PS)
Result: 2

---

Here, each record is paired with measured target mRNA inhibition data.
# assayed.system: KRAS
# cond: ASO, A431, 0.556 µM
After the bases stand the sugars from the 5' end (letter, count) and the backbone: PS all phosphorothioate, else s phosphorothioate and o phosphodiester by linkage. Methylation of C is not given here. e = 2'-O-(2-methoxyethyl) (MOE); k = constrained ethyl (cEt); d = 2'-deoxy (DNA)
Give the value, in units of %, as a plain number.

Some solved entries appear below for comparison.
{"chain.sequence": "ATGCTGTGAAACTCTC (sugars k3 d10 k3, PS)", "target mRNA inhibition [%]": 42}
{"chain.sequence": "TGGTGTAACATAGGTT (sugars kkdddddddddkdkdk, PS)", "target mRNA inhibition [%]": 33}
{"chain.sequence": "TGGTGTAACATAGGTT (sugars k3 d9 k3 e1, PS)", "target mRNA inhibition [%]": 46}

Request: Specify measured target mRNA inhibition for TGTTTATGCAATGTTA (sugars k3 d9 k3 e1, PS) .
Result: 57

---

Listed sequences paired with reported target mRNA inhibition
# assayed.system: DGAT2
# cond: ASO, HepG2, 10 µM
After the bases stand the sugars from the 5' end (letter, count) and the backbone: PS all phosphorothioate, else s phosphorothioate and o phosphodiester by linkage. Methylation of C is not given here. e = 2'-O-(2-methoxyethyl) (MOE); d = 2'-deoxy (DNA)
The response must be a number in % with no trailing unit.

Example results:
{"chain.sequence": "GGCTGTCAGAGGCTACTGGC (sugars e5 d10 e5, PS)", "measured.attribute": "target mRNA inhibition", "meas.value": 63}
{"chain.sequence": "CAGCGATGAGCCAGCAA (sugars e3 d10 e4, PS)", "measured.attribute": "target mRNA inhibition", "meas.value": 88}
{"chain.sequence": "TTCCTTTGAAATCCAATGCA (sugars e5 d10 e5, PS)", "measured.attribute": "target mRNA inhibition", "meas.value": 86}
{"chain.sequence": "GGGCTAATACCTACCTCACC (sugars e5 d10 e5, PS)", "measured.attribute": "target mRNA inhibition", "meas.value": 74}
{"chain.sequence": "CCCAACCTTTAAGGCCTATC (sugars e5 d10 e5, PS)", "measured.attribute": "target mRNA inhibition", "meas.value": 85}

Request: Tell me its target mRNA inhibition given CCAGGTAAGGCCGTATGCCT (sugars e5 d10 e5, PS) as the entry.
Result: 20

Request: Provide one value: measured target mRNA inhibition of TAAGCCTCGGTGTCCTCTCC (sugars e5 d10 e5, PS)
Result: 73

Request: Quote target mRNA inhibition reported for GTGGCTCTCTAGATAGGGTG (sugars e5 d10 e5, PS) please.
Result: 84

Request: Report target mRNA inhibition for TGCTTATCCTTGAGGGTCTC (sugars e5 d10 e5, PS)
Result: 84

Request: Please look at this sequence and report its target mRNA inhibition: GAGGAGTTCTCGAATATCCC (sugars e5 d10 e5, PS)
Result: 80

Request: Specify target mRNA inhibition for CTTCACCAGGGCCTCCATGT (sugars e5 d10 e5, PS) and stop.
Result: 66

Request: Read off the recorded target mRNA inhibition for GCTTCTTGGGCATCTGCTAG (sugars e5 d10 e5, PS)
Result: 82
